Test system: bleeding time
MEASUREMENT_NOTES: prolongation of the bleeding time (method of Duke)
Assay type: in vivo
STATED_CONDITIONS: Mus musculus, po, 1 h; non-anesthetized mice, 10 mgm/kg per os, after one hour, compared to untreated animals
Counter-ions that a name gives are not always drawn.
TEST_READOUT: change in vivo at 10 mg/kg (%)
The response must be a number in % with no trailing unit.

Observe how each entry below is paired with its result.
{"MOLECULE": "c1cnc2c(N3CCCCC3)nc(N3CCNCC3)nc2c1 [K, dihydrochloride]", "change in vivo at 10 mg/kg, %": 138}
{"MOLECULE": "Cc1ccc2nc(N3CCNCC3)nc(N3CC[S+]([O-])CC3)c2n1 [P]", "change in vivo at 10 mg/kg, %": 98}
{"MOLECULE": "c1cnc2c(N3CCOCC3)nc(N3CCNCC3)nc2c1 [H, dihydrochloride]", "change in vivo at 10 mg/kg, %": 55}
{"MOLECULE": "CN1CCN(c2nc(N3CCOCC3)c3ncccc3n2)CC1 [I, dihydrochloride]", "change in vivo at 10 mg/kg, %": 40}
{"MOLECULE": "[O-][S+]1CCN(c2nc(N3CCNCC3)c3ncccc3n2)CC1 [O]", "change in vivo at 10 mg/kg, %": 35}
{"MOLECULE": "[O-][S+]1CCN(c2nc(N(CCCO)CCCO)nc3cccnc23)CC1 [E, hydrochloride]", "change in vivo at 10 mg/kg, %": 40}
{"MOLECULE": "Cl.Cl.c1cnc2c(N3CCCCC3)nc(N3CCSCC3)nc2c1 [N, dihydrochloride]", "change in vivo at 10 mg/kg, %": 98}
{"MOLECULE": "CC1CN(c2nc(N3CCNCC3)nc3cccnc23)CC[S+]1[O-] (stereo not drawn) [G]", "change in vivo at 10 mg/kg, %": 55}

Alright, here's another molecule for you.
Request: Value lookup for change in vivo at 10 mg/kg; key = OCCCN(CCCO)c1nc(N2CCCCC2)c2ncccc2n1 [L, hydrochloride]
Response: 103
